Listed here: items and their measured pKd.
measured.on: T1, human serum albumin (human, UniProt P02768 25-609)
T1 construct: Immobilised on SPR chips; also added in solution in the FcRn occupancy assays; also called HSA; humanSA
assay.summary: SPR Biacore 8K+ SCK, albumin on chip, pH 7.4
Conceptually, pKd converts a concentration in mol/L into minus its log10.

Worked examples follow.
binder	pKd
Alb23 S31A (VHH, VHH alone) VHH: EVQLLESGGGLVQPGGSLRLSCAASGFTFRAFGMSWVRQAPGKGPEWVSSISGSGSDTLYADSVKGRFTISRDNSKNTLYLQMNSLRPEDTAVYYCTIGGSLSRSSQGTLVTVSS	8.47
Alb23 T58A (VHH, VHH alone) VHH: EVQLLESGGGLVQPGGSLRLSCAASGFTFRSFGMSWVRQAPGKGPEWVSSISGSGSDALYADSVKGRFTISRDNSKNTLYLQMNSLRPEDTAVYYCTIGGSLSRSSQGTLVTVSS	8.22

Reported pKd of Alb23 V64A (VHH, VHH alone) VHH: EVQLLESGGGLVQPGGSLRLSCAASGFTFRSFGMSWVRQAPGKGPEWVSSISGSGSDTLYADSAKGRFTISRDNSKNTLYLQMNSLRPEDTAVYYCTIGGSLSRSSQGTLVTVSS : 8.54

Reported pKd of Alb23 S50A (VHH, VHH alone) VHH: EVQLLESGGGLVQPGGSLRLSCAASGFTFRSFGMSWVRQAPGKGPEWVSAISGSGSDTLYADSVKGRFTISRDNSKNTLYLQMNSLRPEDTAVYYCTIGGSLSRSSQGTLVTVSS : 8.63

Reported pKd of Alb23 K65A (VHH, VHH alone) VHH: EVQLLESGGGLVQPGGSLRLSCAASGFTFRSFGMSWVRQAPGKGPEWVSSISGSGSDTLYADSVAGRFTISRDNSKNTLYLQMNSLRPEDTAVYYCTIGGSLSRSSQGTLVTVSS : 8.27

Reported pKd of Alb23 G66A (VHH, VHH alone) VHH: EVQLLESGGGLVQPGGSLRLSCAASGFTFRSFGMSWVRQAPGKGPEWVSSISGSGSDTLYADSVKARFTISRDNSKNTLYLQMNSLRPEDTAVYYCTIGGSLSRSSQGTLVTVSS : 8.40

Reported pKd of Alb23 S56A (VHH, VHH alone) VHH: EVQLLESGGGLVQPGGSLRLSCAASGFTFRSFGMSWVRQAPGKGPEWVSSISGSGADTLYADSVKGRFTISRDNSKNTLYLQMNSLRPEDTAVYYCTIGGSLSRSSQGTLVTVSS : 8.48

Reported pKd of Alb23 L59A (VHH, VHH alone) VHH: EVQLLESGGGLVQPGGSLRLSCAASGFTFRSFGMSWVRQAPGKGPEWVSSISGSGSDTAYADSVKGRFTISRDNSKNTLYLQMNSLRPEDTAVYYCTIGGSLSRSSQGTLVTVSS : 7.29
